Each recorded value in this set is attributed to patent US20250058002A1.

Assay: Midpoint potential E1/2 by voltammetry vs Ag/AgCl (3M KCl)
Type: physicochemical
Details: pH 7; Example 15 table
measurement_kind: E1/2 (vs. Ag/AgCl (3M KCl))/mV

> print(dat)
                                   compound                measurement.kind  reported.measurement
1  NC1=C(C(=O)O)C(=O)c2ccccc2C1=O [drawing 45]  E1/2 (vs. Ag/AgCl (3M KCl))/mV               −250 mV
2  Cn1c2cccc(=O)c-2nc2ccccc21 [Pyocyanin (PYO), Pyocyanin]  E1/2 (vs. Ag/AgCl (3M KCl))/mV               −237 mV
3  Oc1cccc2nc3ccccc3nc12 [1-Hydroxyphenazine (1-OHPHZ), 1-Hydroxyphenazine]  E1/2 (vs. Ag/AgCl (3M KCl))/mV               −371 mV
4          C[n+]1c2ccccc2nc2c(C(=O)O)cccc21  E1/2 (vs. Ag/AgCl (3M KCl))/mV                  0 mV
5        O=C(O)c1cccc2nc3c(C(=O)O)cccc3nc12  E1/2 (vs. Ag/AgCl (3M KCl))/mV                  0 mV

---

Reported E1/2 (vs. Ag/AgCl (3M KCl))/mV values are given for each entry in this list.
Assay: Midpoint potential E1/2 by voltammetry vs Ag/AgCl (3M KCl)
Format: physicochemical
Conditions: pH 7; Example 15 table
measurement_kind: E1/2 (vs. Ag/AgCl (3M KCl))/mV (mV)

> print(dat)
                                   compound  reported.measurement
1  O=C(O)c1cccc2nc3ccccc3nc12 [Phenazine-1-carboxylate (PCA), Phenazine-1-carboxylate]                  −313
2  O=C1c2ccc(S(=O)(=O)O)cc2C(=O)C2C=CC(S(=O)(=O)O)=CC12 (stereo not drawn)                  −381
3  NC(=O)c1cccc2nc3ccccc3nc12 [XXV, phenazine-1-carboxamide]                  −337

---

Test system: PA14
Experiment: Reduction of redox-active compound by PA14 (Table 4)
Type: cell-based, P. aeruginosa
measurement_kind: Reduction by PA14?

> print(dat)
                                   molecule  reported.measurement
1  Cn1c2cccc(=O)c-2nc2ccccc21 [Pyocyanin (PYO), Pyocyanin]                   Yes
2  CN(C)c1ccc2nc3ccc(=[N+](C)C)cc-3sc2c1 [Methylene blue (MB), Methylene blue]                   Yes
3  C[n+]1ccc(-c2cc[n+](C)cc2)cc1 [Paraquat]                    No
4  O=C(O)c1cccc2nc3ccccc3nc12 [Phenazine-1-carboxylate (PCA), Phenazine-1-carboxylate]                   Yes
5  Oc1cccc2nc3ccccc3nc12 [1-Hydroxyphenazine (1-OHPHZ), 1-Hydroxyphenazine]                   Yes

---

System: PA14
Test: Redox cycles over 7 days and support of survival (Table 4)
Type: cell-based, P. aeruginosa
Details: over 7 days
Excerpt: Phenazines and other redox active compound in the sense of the disclosure can be further characterized by various electrical properties such as a standard electrode potential E° vs. NHE of −500 mV to 500 mV and other properties such as number of redox cycle over a certain period of time (e.g. number of days) as ability to support survival and susceptibility to reduction by enzymes and/or bacterial strains.
measurement_kind: # of Redox cycles over 7 days

> print(dat)
                                   compound  reported.measurement
1  O=C(O)Cc1cc(O)ccc1O [Homogentisic acid (HMA), Homogentisic acid]              No cycle
2  Cn1c2cccc(=O)c-2nc2ccccc21 [Pyocyanin (PYO), Pyocyanin]                    31
3  Oc1cccc2nc3ccccc3nc12 [1-Hydroxyphenazine (1-OHPHZ), 1-Hydroxyphenazine]                    14
4  C[n+]1ccc(-c2cc[n+](C)cc2)cc1 [Paraquat]              No cycle
5  O=C(O)c1cccc2nc3ccccc3nc12 [Phenazine-1-carboxylate (PCA), Phenazine-1-carboxylate]                    22
6  CN(C)c1ccc2nc3ccc(=[N+](C)C)cc-3sc2c1 [Methylene blue (MB), Methylene blue]                     3
7  O=C1c2ccc(S(=O)(=O)O)cc2C(=O)c2ccc(S(=O)(=O)O)cc21 [2,6-AQDS]              No cycle
